experiment: Oral bioavailability in Beagle dog at 1 mg/kg administered as single dose by LC-MS/MS analysis; assay type: ADME, organism-based, Canis lupus familiaris; conditions: in vivo

COMPOUND	UNIT DESCRIPTOR	bioavailability
O=C(CC12CCC(C(=O)O)(CC1)C2)N1CCc2c(n(Cc3ccc(F)cc3)c3ncccc23)C1	%	71.1

====

test: Oral bioavailability in Sprague-Dawley rat at 3 mg/kg by LC-MS/MS analysis; format: ADME, organism-based; conditions: in vivo

COMPOUND	bioavailability
O=C(O)CCCCC(=O)N1CCc2c(n(Cc3cccc(F)c3)c3ncccc23)C1	30%

====

assay: Drug metabolism in monkey hepatocytes assessed as compound isomerization by measuring conversion ratio at 1 uM incubated for 2 hrs by LC-MS/MS analysis; format: ADME, cell-based, Macaca mulatta, Hepatocyte; settings: rhesus monkey, read-out: Drug metabolism

COMPOUND	UNIT DESCRIPTOR	metabolised at 2 h, 1 µM
O=C(C[C@H]1CC[C@H](C(=O)O)CC1)N1CCc2c(n(Cc3ccc(F)cc3F)c3ncccc23)C1	%	21.4

====

assay: Clearance in Sprague-Dawley rat at 0.3 mg/kg, iv administered as single dose by LC-MS/MS analysis; assay type: ADME, organism-based; conditions: in vivo
MEASUREMENT TYPE: clearance

COMPOUND	ENDPOINT VALUE
O=C(CC12CCC(C(=O)O)(CC1)C2)N1CCc2c(n(Cc3ccc(F)cc3)c3ncccc23)C1	0.492 L/h/kg

====

assay: Cmax in Beagle dog at 1 mg/kg, po administered as single dose by LC-MS/MS analysis; type: ADME, organism-based, Canis lupus familiaris; set-up: dose 1 mg/kg, route oral; settings: in vivo
MEASUREMENT TYPE: Cmax (ng/mL)

COMPOUND	MEASUREMENT TYPE	ENDPOINT VALUE
O=C(CC12CCC(C(=O)O)(CC1)C2)N1CCc2c(n(Cc3ccc(F)cc3)c3ncccc23)C1	Cmax	1670

====

assay: Plasma clearance in Sprague-Dawley rat at 1 mg/kg, iv by LC-MS/MS analysis; assay type: ADME, organism-based
MEASUREMENT TYPE: clearance (mL/min/kg)

COMPOUND	ENDPOINT VALUE
O=C(O)CCCCC(=O)N1CCc2c(n(Cc3cccc(F)c3)c3ncccc23)C1	7.5

====

assay: Half life in cynomolgus monkey at 0.3 mg/kg, iv administered as single dose by LC-MS/MS analysis; assay type: ADME, organism-based, Macaca fascicularis; settings: in vivo
MEASUREMENT TYPE: half-life (h)

COMPOUND	MEASUREMENT TYPE	ENDPOINT VALUE
O=C(CC12CCC(C(=O)O)(CC1)C2)N1CCc2c(n(Cc3ccc(F)cc3)c3ncccc23)C1	half-life	7.9

====

assay: Cmax in Sprague-Dawley rat at 1 mg/kg, po administered as single dose by LC-MS/MS analysis; assay type: ADME, organism-based; parameters: dose 1 mg/kg, route oral; conditions: in vivo
MEASUREMENT TYPE: Cmax (ng/mL)

COMPOUND	UNIT DESCRIPTOR	ENDPOINT VALUE
O=C(CC12CCC(C(=O)O)(CC1)C2)N1CCc2c(n(Cc3ccc(F)cc3)c3ncccc23)C1	ng/mL	261

====

assay: Cmax in cynomolgus monkey at 1 mg/kg, po administered as single dose by LC-MS/MS analysis; format: ADME, organism-based, Macaca fascicularis; parameters: dose 1 mg/kg, route oral; conditions: in vivo
MEASUREMENT TYPE: Cmax (ng/mL)

COMPOUND	ENDPOINT VALUE
O=C(CC12CCC(C(=O)O)(CC1)C2)N1CCc2c(n(Cc3ccc(F)cc3)c3ncccc23)C1	63
